This collection of values is drawn from paper PMC7113723.

Test system: HCoV-229E
experiment description: microbe, parasite or virus in culture
Type: cell-based
condition parameters: Human coronavirus 229E, MRC5, 24 h
measured metric: pEC50
Friendly reminder that pEC50 comes from taking -log10 of the concentration in mol/L.

pEC50 measured on COC(=O)[C@H]1[C@@H](O)[C@@]2(O)c3c(OC)cc(O[C@@H]4O[C@@H]([C@H](O)CO)CO[C@H]4OC)cc3O[C@@]2(c2ccc(OC)cc2)[C@@H]1c1ccccc1 = 8.52

* * *

System: PV
experiment description: microbe, parasite or virus in culture
Assay type: cell-based, poliovirus type 1
condition parameters: Enterovirus C, MRC5, 24 h
measured metric: EC50

EC50 measured on COC(=O)[C@H]1[C@@H](O)[C@@]2(O)c3c(OC)cc(O[C@@H]4O[C@@H]([C@H](O)CO)CO[C@H]4OC)cc3O[C@@]2(c2ccc(OC)cc2)[C@@H]1c1ccccc1 = ~20 nM
